Source listed as patent US20250296971A1.

Target: GIPR (CHO-K1-hGIPR cells) (Homo sapiens)
Construct: host or cells: CHO-K1
Sequence (P48546 22-466): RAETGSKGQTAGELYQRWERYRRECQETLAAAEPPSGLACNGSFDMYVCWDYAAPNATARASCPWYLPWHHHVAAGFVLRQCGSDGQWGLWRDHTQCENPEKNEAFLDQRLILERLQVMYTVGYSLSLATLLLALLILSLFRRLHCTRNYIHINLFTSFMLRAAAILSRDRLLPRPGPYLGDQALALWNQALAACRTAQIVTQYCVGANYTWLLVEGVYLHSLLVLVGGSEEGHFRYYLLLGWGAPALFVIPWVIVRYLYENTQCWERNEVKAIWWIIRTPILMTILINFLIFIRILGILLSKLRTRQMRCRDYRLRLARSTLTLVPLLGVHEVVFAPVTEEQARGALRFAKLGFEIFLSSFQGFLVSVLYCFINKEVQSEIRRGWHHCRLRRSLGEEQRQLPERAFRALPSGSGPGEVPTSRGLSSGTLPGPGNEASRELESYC
Experiment: FACS binding assay
Conditions: competition with 20 nM GIP-057, 4° C. for 1 hour, read-out: pIC50 Category (converted)
*1 amine or outer side, *2 acyl side, *3 side chain or, on linkers, in order; H or OH if unused. Where a SMILES comes first, the peptide text is derived from it. Bridges are numbered along the chain shown (N, C = ends). [ ]: non-standard residue; d: D form. The star is where a group is joined. DOTA = O=C(O)CN1CCN(CC(=O)O)CCN(CC(=O)*)CCN(CC(=O)O)CC1; Pyridine(2,6-diCH2) = c1cc(C[*:1])nc(C[*:2])c1; Phe(4-Cl) = N[C@@H](Cc1ccc(Cl)cc1)C(=O)O; 1Nal = N[C@@H](Cc1cccc2ccccc12)C(=O)O; mXylylene = c1cc(C[*:1])cc(C[*:2])c1; Hyp = O=C(O)[C@@H]1C[C@@H](O)CN1; hLeu = CC(C)CC[C@H](N)C(=O)O; Api = NC1(C(=O)O)CCNCC1; Thp = NC1(C(=O)O)CCOCC1
readout.type: IC50

CC[C@H](C)[C@@H]1NC(=O)[C@H](CC(C)C)NC(=O)C2(CCN(C(=O)CN3CCN(CC(=O)O)CCN(CC(=O)O)CCN(CC(=O)O)CC3)CC2)NC(=O)[C@@H](NC(=O)[C@H](CCC(C)C)NC(=O)[C@H](CCC(=O)O)NC(=O)[C@@H]2CCCN2C(=O)[C@H](Cc2cccc3ccccc23)NC(=O)[C@H](Cc2c[nH]c3ccccc23)NC(=O)[C@H](CC(=O)O)NC(C)=O)CSCc2cccc(c2)CSC[C@@H](C(N)=O)NC1=O [GIP-400] (Ac-DW[1Nal]PE[hLeu]C[Api](DOTA)LIC-NH2; linker 7-11 via mXylylene)    100 to 794 nM

Now examine the next entry.
Task: Missing value: IC50, GIPR (CHO-K1-hGIPR cells) (Homo sapiens), entry CC[C@H](C)[C@@H]1NC(=O)[C@H](CC(C)C)NC(=O)C2(CCOCC2)NC(=O)[C@@H](NC(=O)[C@@H](CC(C)C)NC(=O)[C@H](CCC(=O)O)NC(=O)[C@@H]2C[C@@H](O)CN2C(=O)[C@H](Cc2ccc(Cl)cc2)NC(=O)[C@H](Cc2c[nH]c3ccccc23)NC(=O)[C@H](CC(=O)O)NC(C)=O)CSCc2cccc(n2)CSC[C@@H](C(N)=O)NC1=O [GIP-350] (Ac-DW[Phe(4-Cl)][Hyp]E[dL]C[Thp]LIC-NH2; linker 7-11 via Pyridine(2,6-diCH2)) . Fill in?
Result: > 1000 nM
